test_target: QPCT (rhQPCT) (Homo sapiens (Human))
Sequence (Q16769 29-361): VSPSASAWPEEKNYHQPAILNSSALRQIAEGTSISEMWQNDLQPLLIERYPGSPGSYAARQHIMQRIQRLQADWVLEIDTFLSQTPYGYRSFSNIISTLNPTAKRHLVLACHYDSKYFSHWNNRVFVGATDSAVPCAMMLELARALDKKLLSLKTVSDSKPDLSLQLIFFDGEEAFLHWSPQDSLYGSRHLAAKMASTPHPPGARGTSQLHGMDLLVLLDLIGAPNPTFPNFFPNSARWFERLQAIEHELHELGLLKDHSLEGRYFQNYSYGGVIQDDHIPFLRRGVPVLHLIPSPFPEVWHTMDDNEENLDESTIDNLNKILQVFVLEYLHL
property_measured: IC50

[[record]]
compound = "Cn1cnnc1C1CCN(c2c(-c3ccc(F)nc3)ccc(-c3c[nH]nc3N)c2C#N)CC1 [Example 92]"
result = "< 100 nM"

[[record]]
compound = "Cn1cnnc1C1CCN(c2c(-c3ccc(F)nc3)ccc(C3CC3)c2C#N)CC1 [Example 68]"
result = "< 100 nM"

[[record]]
compound = "Cn1cnnc1C1CCN(c2c(C#N)cccc2-c2cnc(=O)n(C)c2)CC1 [Example 34]"
result = "< 100 nM"

[[record]]
compound = "Cn1ccc(-c2ccc(-c3cncc(B(O)O)c3)c(N3CCC(c4nncn4C)CC3)c2C#N)n1 [Example 126]"
result = "< 100 nM"

[[record]]
compound = "[2H]C([2H])([2H])n1cnnc1C1CCN(c2c(-c3ccnnc3)ccc(-c3cnn(C)c3)c2C#N)CC1 [Example 55]"
result = "< 100 nM"

[[record]]
compound = "COc1ccncc1-c1ccc(Cl)c(C#N)c1N1CCC(c2nncn2C)CC1 [Example 27]"
result = "< 100 nM"

[[record]]
compound = "Cn1cnnc1C1CCN(c2c(C#N)cccc2-c2cnccn2)CC1 [Example 5]"
result = "100 to 1000 nM"

[[record]]
compound = "Cn1cnnc1C1CCN(c2c(C#N)cccc2-c2ccc3ocnc3c2)CC1 [Example 15]"
result = "< 100 nM"

[[record]]
compound = "Cn1cnnc1C1CCN(c2c(C#N)cccc2-c2ccc(OS(=O)(=O)F)nc2)CC1 [Example 119]"
result = "100 to 1000 nM"

[[record]]
compound = "Cn1ccc(-c2ccc(-c3ccc(F)nc3)c(N3CCN(c4nncn4C)CC3)c2C#N)n1 [Example 122]"
result = "< 100 nM"

[[record]]
compound = "Cn1cnnc1C1CCN(c2c(-c3ccc(F)nc3)ccnc2C#N)CC1 [Example 132]"
result = "< 100 nM"

[[record]]
compound = "Cn1ccc(-c2cc(F)c(-c3ccc(F)nc3)c(N3CCC(c4nncn4C)CC3)c2C#N)n1 [Example 131]"
result = "100 to 1000 nM"

[[record]]
compound = "COc1ccc(-c2ccnnc2)c(N2CCC(c3nncn3C)CC2)c1C#N [Example 26]"
result = "< 100 nM"

[[record]]
compound = "C#Cc1ccc(-c2cccc(C#N)c2N2CCC(c3nncn3C)CC2)cc1C=O [Example 128]"
result = "< 100 nM"

[[record]]
compound = "Cn1cnnc1C1CCN(c2c(C#N)cccc2-c2cnccc2O)CC1 [Example 7]"
result = "1000 to 10000 nM"

